- System: native PDE activity in P. falciparum particulate fractions
- TEST_SUMMARY: PDE assay: cGMP hydrolysis by native parasite particulate fractions
- Format: biochemical, Plasmodium falciparum
- CONDITIONS: parasite particulate fractions
VALUE_KIND: effect on native PDE enzyme activity

Q: Could you please provide reported effect on native PDE enzyme activity for Cn1c(=O)c2c(ncn2C)n(C)c1=O ? Thanks!
Ans: little or no effect

Q: Return effect on native PDE enzyme activity for the following compound: Cn1c(=O)c2[nH]cnc2n(C)c1=O
Ans: little or no effect

Q: Return the recorded effect on native PDE enzyme activity value; entry: CC(C)Cn1c(=O)n(C)c(=O)c2[nH]cnc21
Ans: little or no effect

* * *

- ASSAY_TARGET: PfPKGT618Q (Plasmodium falciparum, UniProt Q8I719, T618Q)
- Construct: The gene encoding full-length PfPKG was cloned into the pTrcHis expression plasmid (Invitrogen); His tag (from pTrcHis vector)
- Sequence (Q8I719 whole entry T618Q): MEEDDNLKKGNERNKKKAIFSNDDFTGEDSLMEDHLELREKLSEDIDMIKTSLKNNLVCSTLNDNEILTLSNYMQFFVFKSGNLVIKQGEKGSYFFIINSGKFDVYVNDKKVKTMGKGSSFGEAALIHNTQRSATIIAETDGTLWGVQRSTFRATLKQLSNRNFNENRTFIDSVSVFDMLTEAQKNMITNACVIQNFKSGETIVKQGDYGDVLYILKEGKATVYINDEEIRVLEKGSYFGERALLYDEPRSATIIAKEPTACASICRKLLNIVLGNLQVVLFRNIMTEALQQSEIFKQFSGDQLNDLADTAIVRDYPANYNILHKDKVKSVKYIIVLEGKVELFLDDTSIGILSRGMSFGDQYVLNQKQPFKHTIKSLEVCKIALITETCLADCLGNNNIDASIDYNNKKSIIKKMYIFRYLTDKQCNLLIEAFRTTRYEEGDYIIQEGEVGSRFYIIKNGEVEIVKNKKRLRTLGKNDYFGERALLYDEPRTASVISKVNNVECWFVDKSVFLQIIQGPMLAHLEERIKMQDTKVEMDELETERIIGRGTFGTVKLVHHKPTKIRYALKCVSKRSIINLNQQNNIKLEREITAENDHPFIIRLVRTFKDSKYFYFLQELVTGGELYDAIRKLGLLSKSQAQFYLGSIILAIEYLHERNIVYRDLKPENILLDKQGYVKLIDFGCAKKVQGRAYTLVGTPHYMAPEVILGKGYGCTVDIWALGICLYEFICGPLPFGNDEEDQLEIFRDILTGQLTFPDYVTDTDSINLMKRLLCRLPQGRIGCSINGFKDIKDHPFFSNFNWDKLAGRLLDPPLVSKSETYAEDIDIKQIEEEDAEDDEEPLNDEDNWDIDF
- TEST_SUMMARY: Recombinant PKG activity assay, T618Q mutant
- CONDITIONS: 10 μM cGMP; read-out: IC50, PfPKGT618Q recombinant enzyme
VALUE_KIND: pIC50
Numbers only, as −log10 of the molar value.

Q: Give the observed pIC50 of CN1CCC(c2cc(-c3ccncc3)c(-c3ccc(F)cc3)[nH]2)CC1 for PfPKGT618Q (Plasmodium falciparum, UniProt Q8I719, T618Q).
Ans: 4.75
